Experiment: in vitro
Settings: both, human, s9, Half-life (min)
Result Type: half-life at 1 μM

>>> observed_value("CC/C=C\\C/C=C\\C/C=C\\C/C=C\\C/C=C\\CCCC(=O)OCCNC(=O)CCCCCCCCCCCCCCC")
"32 min"
>>> observed_value("CCCCCCCCCCCCCCCC(=O)NCCOC(=O)CCC(=O)OCC(O)CO (stereo not shown)")
"5.3 min"
>>> observed_value("CCCCCCCCCCCCCCCC(=O)NCCOC(=O)CCC(=O)OCC(COC(=O)CCCCCCC)OC(=O)CCCCCCC (stereo not shown) [Compound I-3, PEA-Succinate-Glycerol-Di-Caprylic]")
"> 60 min"
>>> observed_value("CCCCC/C=C\\C/C=C\\CCCCCCCC(=O)OCCNC(=O)CCCCCCCCCCCCCCC")
"> 60 min"

====

Assay: Intestinal S9 fraction stability, rat
Details: male, Sprague-Dawley, rat, s9, Half-life, Control Compound; Rat intestinal S9 fraction
Result Type: half-life

>>> observed_value("C[C@]12CC[C@H]3[C@@H](CCC4=CC(=O)CC[C@@]43C)[C@@H]1CC[C@@H]2O [Testosterone, testosterone, reference compound]")
"> 60 min"

====

Test: in vitro
Details: male, Beagle, dog, s9, Half-life (min)
Result Type: half-life at 1 μM

>>> observed_value("CC/C=C\\C/C=C\\C/C=C\\C/C=C\\C/C=C\\CCCC(=O)OCCNC(=O)CCCCCCCCCCCCCCC [Compound I-5]")
"> 1 h"
>>> observed_value("CCCCC/C=C\\C/C=C\\CCCCCCCC(=O)OCCNC(=O)CCCCCCCCCCCCCCC [Compound I-6]")
"> 1 h"
>>> observed_value("CCCCCCCCCCCCCCCC(=O)NCCOC(=O)CCC(=O)OCC(O)CO (centres unmarked) [Compound I-9]")
"< 0.0167 h"
>>> observed_value("CCCCCCCCCCCCCCCC(=O)NCCOC(=O)CCC(=O)OC[C@H]1O[C@@](CO)(O[C@H]2O[C@H](CO)[C@@H](O)[C@H](O)[C@H]2O)[C@@H](O)[C@@H]1O [Compound I-7]")
"< 0.0167 h"
>>> observed_value("CCCCCCCCCCCCCCCC(=O)NCCOC(=O)CCC(=O)OCC(COC(=O)CCCCCCC)OC(=O)CCCCCCC (centres unmarked) [Compound I-3, PEA-Succinate-Glycerol-Di-Caprylic]")
"> 1 h"

====

Assay: in vitro
Details: both, human, s9, 0 h, 1 μM
Listing: % Remaining of Initial (n = 1), 0 min of selected compounds
Result Type: % Remaining of Initial (n = 1), 0 min (%)

>>> observed_value("CCCCCCCCCCCCCCCC(=O)NCCOC(=O)CCC(=O)OC[C@H]1O[C@@](CO)(O[C@H]2O[C@H](CO)[C@@H](O)[C@H](O)[C@H]2O)[C@@H](O)[C@@H]1O")
100
>>> observed_value("CCCCC/C=C\\C/C=C\\CCCCCCCC(=O)OCCNC(=O)CCCCCCCCCCCCCCC")
100
>>> observed_value("CC/C=C\\C/C=C\\C/C=C\\C/C=C\\C/C=C\\CCCC(=O)OCCNC(=O)CCCCCCCCCCCCCCC")
100
>>> observed_value("CCCCCCCCCCCCCCCC(=O)NCCOC(=O)CCC")
100
>>> observed_value("CCCCCCCCCCCCCCCC(=O)NCCOC(=O)CCC(=O)OCC(COC(=O)CCCCCCC)OC(=O)CCCCCCC (stereo not shown) [Compound I-3, PEA-Succinate-Glycerol-Di-Caprylic]")
100
>>> observed_value("CCCCCCCCCCCCCCCC(=O)NCCOC(=O)CCC(=O)OCC(O)CO (stereo not shown)")
100
>>> observed_value("CCCCCCCCCCCCCCCC(=O)NCCOC(=O)CCC(=O)OCC(COC(=O)CCC)OC(=O)CCC (stereo not shown)")
100

Origin of measurements: patent US11547681B2
